Target: SCD1 (Homo sapiens, UniProt O00767)
Construct: host or cells: S. cerevisiae ole1Δ strain (W303 pdr1Δ pdr3Δ background), plasmid pRS316 with TDH3 promoter and CYC1 terminator
Assay: Growth inhibition of humanized yeast strain expressing SCD1 as sole desaturase
Format: cell-based
Conditions: humanized yeast strain expressing SCD1
Method: Strain oleΔ (yeast ole1 deletion mutant) was constructed by deleting OLE1 with NAT-MX6 in BY4741, amplifying the deletion cassette from the genomic DNA of the resulting strain with primers flanking the ORF by 1000 bp upstream and downstream, transforming the resulting deletion cassette into W303 pdr1Δ pdr3Δ, and plating transformants on YPD media containing G418 (200 μg/mL) and nourseothricin ([…]) with 0.01% TWEEN®-20 and 0.5 mM oleic and palmitoleic acids. […]
test.readout: SCD1 % Max Inhibition (%)
Output spec: scalar in %, unitless text.

// below: answered compounds
compound	test.readout	reported.result
Cc1nn(C)c2cc(-c3nsc(C4CCN(C(=O)C5CC(=O)N(c6ccccc6)C5)CC4)n3)ccc12 (stereo not shown)	SCD1 % Max Inhibition	83.15
CC(C)n1ncc2ccc(-c3noc(C4CCN(C(=O)c5ccc(Cl)cc5)CC4)n3)cc21	SCD1 % Max Inhibition	64.44
Cc1nn(C)c2cc(-c3noc(C4CCN(C(=O)C(C)N5Cc6ccccc6C5=O)CC4)n3)ccc12 (stereo not shown)	SCD1 % Max Inhibition	86.53
Cc1nn(C)c2cc(-c3noc(C4CCN(C(=O)[C@H]5CC(=O)N(c6ccccc6)C5)CC4(F)F)n3)ccc12 (stereo partly shown)	SCD1 % Max Inhibition	91.61
Cc1nn(C)c2cc(-c3nsc(C4CCN(C(=O)CNC(=O)c5ccccn5)CC4)n3)ccc12	SCD1 % Max Inhibition	81.04
Cc1nn(C)c2cc(-c3noc(C4(C)CCN(C(=O)CNC(=O)c5ccccc5)CC4)n3)ccc12	SCD1 % Max Inhibition	63.76

Continue with the compound presented below.
Quickly give me recorded SCD1 % Max Inhibition for Cc1nn(C)c2cc(-c3noc(C4CCN(C(=O)C5CC(=O)N(c6ccccc6)C5)CC4)n3)cnc12 (stereo not shown) 54.49

----------
Molecular target: SCD1 (Homo sapiens, UniProt O00767)
Construct: host or cells: S. cerevisiae ole1Δ strain (W303 pdr1Δ pdr3Δ background), plasmid pRS316 with TDH3 promoter and CYC1 terminator
Sequence (O00767 1-359): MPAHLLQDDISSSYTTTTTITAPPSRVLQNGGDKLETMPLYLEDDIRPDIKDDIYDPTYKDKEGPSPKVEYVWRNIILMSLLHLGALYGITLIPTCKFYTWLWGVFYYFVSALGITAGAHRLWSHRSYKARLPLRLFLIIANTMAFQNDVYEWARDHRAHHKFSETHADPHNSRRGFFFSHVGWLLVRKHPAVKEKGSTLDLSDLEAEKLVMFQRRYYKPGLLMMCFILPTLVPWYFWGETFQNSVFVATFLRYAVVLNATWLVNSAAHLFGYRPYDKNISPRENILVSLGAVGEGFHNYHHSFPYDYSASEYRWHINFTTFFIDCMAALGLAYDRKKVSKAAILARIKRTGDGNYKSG
Assay: Growth inhibition of humanized yeast strain expressing SCD1 as sole desaturase
Type: cell-based
Details: humanized yeast strain expressing SCD1
pIC50: −log10 of the molar value.
Parameter: pIC50. Scope: all listed entries.

compound	pIC50
COc1ccc(-c2noc(C3CCN(C(=O)CNC(=O)c4ccc(C)c(C)c4)CC3)n2)cc1	4.43

Provide the reported pIC50 (system: SCD1 (Homo sapiens, UniProt O00767)) for CCOc1ccc(-c2noc(C3CCN(C(=O)C4CN(c5ccccc5)C(=O)CO4)CC3)n2)cc1OC (stereo not shown) < 4.35

Provide the reported pIC50 (system: SCD1 (Homo sapiens, UniProt O00767)) for Cc1nn(C)c2cc(-c3noc(C4CCN(C(=O)CNC(=O)c5ccsn5)CC4)n3)ccc12 < 4.35

Provide the reported pIC50 (system: SCD1 (Homo sapiens, UniProt O00767)) for Cc1cccc(-c2nc(C3CCN(C(=O)C4CC(=O)N(c5ccc(C)c(C)c5)C4)CC3)no2)c1 (stereo not shown) < 4.35

----------
Target: SCD1 (Homo sapiens)
Construct: host or cells: S. cerevisiae ole1Δ strain (W303 pdr1Δ pdr3Δ background), plasmid pRS316 with TDH3 promoter and CYC1 terminator
Assay: Growth inhibition of humanized yeast strain expressing SCD1 as sole desaturase
Assay type: cell-based
Conditions: humanized yeast strain expressing SCD1
Parameter: IC50. Scope: all listed entries.

compound	study.target	IC50
CC(C)n1ncc2ccc(-c3noc(C4CCN(C(=O)CNC(=O)c5ccccc5)CC4(F)F)n3)cc21 (stereo not shown) [Compound 519]	SCD1 (Homo sapiens)	> 45 µM
Cc1nn(C)c2nc(-c3noc(C4CCN(C(=O)C5CC(=O)N(c6ccccc6)C5)CC4)n3)ccc12 (stereo not shown) [Compound 116]	SCD1 (Homo sapiens)	> 45 µM
CCN1C(=O)COc2cc(-c3noc(C4CCN(C(=O)CNC(=O)c5ccccc5)CC4)n3)ccc21 [Compound 111]	SCD1 (Homo sapiens)	> 45 µM

Continue with the compound presented below.
Quickly give me recorded IC50 for Cc1nn(C)c2cc(-c3noc([C@H]4CCN(C(=O)CNC(=O)c5ccccc5)CC4(F)F)n3)ccc12 [Compound 578] 8.46 µM

----------
Biological target: SCD5 (Homo sapiens, UniProt Q86SK9)
Construct: host or cells: S. cerevisiae ole1Δ strain (W303 pdr1Δ pdr3Δ background), plasmid pRS316 with TDH3 promoter and CYC1 terminator
Sequence (Q86SK9 whole entry): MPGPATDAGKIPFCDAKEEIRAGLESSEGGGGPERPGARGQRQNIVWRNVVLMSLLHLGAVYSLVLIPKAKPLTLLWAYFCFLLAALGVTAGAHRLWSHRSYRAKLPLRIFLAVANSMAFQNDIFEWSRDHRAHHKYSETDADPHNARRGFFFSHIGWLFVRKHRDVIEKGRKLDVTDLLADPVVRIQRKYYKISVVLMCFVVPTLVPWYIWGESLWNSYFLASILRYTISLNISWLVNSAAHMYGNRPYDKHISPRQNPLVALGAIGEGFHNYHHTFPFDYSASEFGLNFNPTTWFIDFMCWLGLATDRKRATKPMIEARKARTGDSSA
Test: Growth inhibition of humanized yeast strain expressing SCD5 as sole desaturase
Type: cell-based
Conditions: humanized yeast strain, 40 h
test.readout: pIC50
# pIC50: negative log10 of molar concentration; output just the value

Quickly give me recorded pIC50 for CC(C)(C)OC(=O)N1CCC(c2nc(-c3ccc4cnc(C#N)n4c3)no2)CC1 5.04

Quickly give me recorded pIC50 for COC(=O)N1CCC(c2nc(-c3ccc4cnn([C@@H]5CCOC5)c4c3)no2)CC1 7.40

Quickly give me recorded pIC50 for CC(C)(C)OC(=O)N1CCC(c2nnc(-c3ccc4cnn(C5COC5)c4c3)o2)CC1 7.19

Quickly give me recorded pIC50 for CC(C)(C)OC(=O)N1CCC(c2nc(-c3ccc4c(C#N)ncn4c3)no2)CC1 4.59

----------
Biological target: Ole1 (Saccharomyces cerevisiae, UniProt P21147)
Construct: expressed in transfected cells; host or cells: S. cerevisiae ole1Δ strain (W303 pdr1Δ pdr3Δ background), plasmid pRS316 with TDH3 promoter and CYC1 terminator
Sequence (P21147 whole entry): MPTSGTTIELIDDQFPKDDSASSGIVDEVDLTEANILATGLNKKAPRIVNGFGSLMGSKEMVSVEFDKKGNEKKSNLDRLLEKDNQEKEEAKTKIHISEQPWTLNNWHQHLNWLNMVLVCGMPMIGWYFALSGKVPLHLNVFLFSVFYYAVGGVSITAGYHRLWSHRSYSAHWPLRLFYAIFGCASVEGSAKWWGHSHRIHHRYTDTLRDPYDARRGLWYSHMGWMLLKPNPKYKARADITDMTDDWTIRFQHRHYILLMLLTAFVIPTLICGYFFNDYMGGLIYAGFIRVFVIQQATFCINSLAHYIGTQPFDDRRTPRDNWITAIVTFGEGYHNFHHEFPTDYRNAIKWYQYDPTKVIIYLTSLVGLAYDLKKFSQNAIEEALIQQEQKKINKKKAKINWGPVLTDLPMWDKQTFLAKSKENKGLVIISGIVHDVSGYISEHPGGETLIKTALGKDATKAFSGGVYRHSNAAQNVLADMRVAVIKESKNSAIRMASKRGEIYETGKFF
Experiment: Growth inhibition of yeast strain expressing Ole1 as sole desaturase
Type: cell-based
Settings: yeast strain expressing Ole1 as sole desaturase
Parameter: OLE1 % Max Inhibition. Scope: all listed entries.
Output spec: scalar in %, unitless text.

molecule	reported.result
CC(C)(C#N)C1CN(c2noc(C3CCN(C(=O)C4CC(=O)N(c5ccccc5)C4)CC3)n2)C1 (stereo not shown)	92.77
Cc1nn(C)c2cc(-c3noc(C4CCN(C(=O)c5ccccc5)CC4)n3)ccc12	17.18

Quickly give me recorded OLE1 % Max Inhibition for CCOc1ncc(-c2noc(C3CCN(C(=O)CN4Cc5ccccc5C4=O)CC3)n2)cc1OC 39.81

Quickly give me recorded OLE1 % Max Inhibition for Cc1nn(C)c2cc(-c3noc(C4CCN(C(=O)Oc5ccccc5)CC4)n3)ccc12 40.3

Quickly give me recorded OLE1 % Max Inhibition for N#CCC1CN(c2noc(C3CCN(C(=O)C4CC(=O)N(c5ccccc5)C4)CC3)n2)C1 (stereo not shown) 95.59

Quickly give me recorded OLE1 % Max Inhibition for COc1ccc(-c2noc(C3CCN(C(=O)c4cccc(C(C)C)c4)CC3)n2)cc1OC 57.28

Quickly give me recorded OLE1 % Max Inhibition for CCOc1ccc(-c2noc(N3CCN(C(=O)CN4Cc5ccccc5C4=O)CC3)n2)cc1OC 20.97

Quickly give me recorded OLE1 % Max Inhibition for COc1ccc(-c2noc(C3CCN(C(=O)CNC(=O)c4ccccn4)CC3)n2)cc1OC 51.17

Quickly give me recorded OLE1 % Max Inhibition for CC(C)c1ccc(C(=O)N2CCC(c3nc(Cl)no3)CC2)cc1 71.57

Quickly give me recorded OLE1 % Max Inhibition for CCOC(=O)C(C)(C)n1cc2ccc(-c3noc(C4CCN(C(=O)C5CC(=O)N(c6ccccc6)C5)CC4)n3)cc2n1 (stereo not shown) 89.35

Quickly give me recorded OLE1 % Max Inhibition for Cn1ncc2c1CN(c1noc(C3CCN(C(=O)C4CC(=O)N(c5ccccc5)C4)CC3)n1)CC2 (stereo not shown) 94.60

Quickly give me recorded OLE1 % Max Inhibition for Cc1nn(C)c2cc(-c3noc(C4CCN(C(=O)CNC(=O)c5ccccc5C(F)(F)F)CC4)n3)ccc12 11.7

Quickly give me recorded OLE1 % Max Inhibition for CCOc1cnc(-c2noc(C3CCN(C(=O)CN4Cc5ccccc5C4=O)CC3)n2)cc1OC 9.34

Quickly give me recorded OLE1 % Max Inhibition for COc1ccc(-c2noc(C3CCN(C(=O)CNC(C)=O)CC3)n2)cc1OC 87.95

Quickly give me recorded OLE1 % Max Inhibition for COc1ccc(-c2noc(C3CCN(C(=O)C(C)(C)NC(=O)c4ccccc4)CC3)n2)cc1OC 91.00

Quickly give me recorded OLE1 % Max Inhibition for O=C([C@H]1CC(=O)N(c2ccccc2)C1)N1CCC(c2nc(-c3ccc(Br)s3)no2)CC1 73.12
